Target of assay: Sko1 (UniProt Q02100)
Sequence: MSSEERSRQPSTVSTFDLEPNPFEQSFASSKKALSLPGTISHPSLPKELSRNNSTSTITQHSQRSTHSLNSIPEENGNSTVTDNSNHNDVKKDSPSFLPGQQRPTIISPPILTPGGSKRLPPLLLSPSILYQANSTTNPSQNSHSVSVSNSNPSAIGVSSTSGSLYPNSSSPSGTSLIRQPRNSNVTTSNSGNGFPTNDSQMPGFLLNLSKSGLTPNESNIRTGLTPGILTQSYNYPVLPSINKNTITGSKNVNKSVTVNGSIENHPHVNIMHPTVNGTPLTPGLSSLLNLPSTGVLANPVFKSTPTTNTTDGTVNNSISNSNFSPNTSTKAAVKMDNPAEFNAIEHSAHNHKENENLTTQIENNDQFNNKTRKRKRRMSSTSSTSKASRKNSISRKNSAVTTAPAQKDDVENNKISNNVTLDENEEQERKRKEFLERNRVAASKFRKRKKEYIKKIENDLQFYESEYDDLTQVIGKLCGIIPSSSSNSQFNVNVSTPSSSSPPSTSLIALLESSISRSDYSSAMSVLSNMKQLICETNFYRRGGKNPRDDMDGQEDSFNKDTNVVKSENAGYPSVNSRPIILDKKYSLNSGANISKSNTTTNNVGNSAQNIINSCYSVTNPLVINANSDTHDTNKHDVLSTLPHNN
Test details: PBM E-score (8-mer binding enrichment) (E-score (-0.5 to 0.5)); higher = stronger / more preferred TF binding
Assay conditions: protein concentration: 200 nM; construct: GST-full length
In all, about 33,000 sequences were measured (“E-score (-0.5 to 0.5)”: median about -0.032, highest 2% from about 0.36 on). The sample holds the highest values, similar sequences and a random draw of the others, so the mix is not that of the screen.
For each entry below, report its PBM E-score value.
Numbers only.

Example entries begin here.
# Record sequence, PBM E-score
rows = [
    ("AAAGTATT", 0.0493),
    ("AAGGTTAA", 0.06),
    ("AGAGGGTA", -0.035),
    ("TACGTATA", 0.483),
    ("GGTAACCA", -0.101),
    ("ACGGCTCG", -0.0111),
    ("CGCGTATC", 0.232),
    ("GTCGTATA", 0.269),
    ("CACGTATC", 0.393),
    ("ACGCCGTC", 0.192),
]

Please give PBM E-score, item by item, for the list that follows.
1. CCTGCGAA
2. ACCGTATA
3. CATGACTA
4. CCTATACC
5. GGTAACTA
6. GAGATCAC
7. CGTAACCA

-0.0899
0.0367
0.0134
-0.227
0.0515
0.00833
0.389

* * *

Target of assay: Sko1 (UniProt Q02100)
Sequence: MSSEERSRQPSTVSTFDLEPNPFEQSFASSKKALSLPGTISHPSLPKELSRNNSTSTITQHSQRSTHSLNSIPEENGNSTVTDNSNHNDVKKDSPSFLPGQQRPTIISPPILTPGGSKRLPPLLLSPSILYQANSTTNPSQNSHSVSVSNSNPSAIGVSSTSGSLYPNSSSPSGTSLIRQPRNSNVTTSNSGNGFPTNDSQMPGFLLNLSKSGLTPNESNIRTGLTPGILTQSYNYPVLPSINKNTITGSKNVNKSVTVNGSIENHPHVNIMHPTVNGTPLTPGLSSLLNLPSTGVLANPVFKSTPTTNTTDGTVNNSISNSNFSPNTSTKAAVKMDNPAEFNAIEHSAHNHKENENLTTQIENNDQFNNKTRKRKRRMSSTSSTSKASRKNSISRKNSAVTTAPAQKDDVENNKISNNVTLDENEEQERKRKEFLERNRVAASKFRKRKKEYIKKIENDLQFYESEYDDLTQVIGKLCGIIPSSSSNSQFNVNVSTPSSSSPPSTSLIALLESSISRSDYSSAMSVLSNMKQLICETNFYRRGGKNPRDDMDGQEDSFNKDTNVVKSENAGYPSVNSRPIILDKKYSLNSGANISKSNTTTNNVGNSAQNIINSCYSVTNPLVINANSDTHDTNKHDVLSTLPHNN
Test details: PBM E-score (8-mer binding enrichment) (E-score (-0.5 to 0.5)); higher = stronger / more preferred TF binding
Assay conditions: protein concentration: 200 nM; construct: GST-full length
The full ranking holds about 33,000 sequences; the median of “E-score (-0.5 to 0.5)” is about -0.032, and the highest 2% start at about 0.36. The sample holds the highest values, similar sequences and a random draw of the others, so the mix is not that of the screen.
Value type: PBM E-score
Give bare numbers.

Example entries begin here.
# Record sequence, Reported result
records = [
    ("ATGTCAGG", 0.0993),
    ("ACATCAGT", 0.179),
    ("GTGTCAGA", -0.06),
]

Please give PBM E-score, item by item, for the list that follows.
1. AAGTCAGT
2. TCGGGCAA
3. ACGTCAGA

1. -0.0135
2. -0.0812
3. 0.479

Please give PBM E-score, item by item, for the list that follows.
1. ACGTCAGG
2. GTCTATGA
3. ATTCGACA
4. TCGTCAGA
5. CCGTCAGA

1. 0.457
2. 0.238
3. -0.09
4. 0.307
5. -0.0558

* * *

Target of assay: Sko1 (UniProt Q02100)
Sequence: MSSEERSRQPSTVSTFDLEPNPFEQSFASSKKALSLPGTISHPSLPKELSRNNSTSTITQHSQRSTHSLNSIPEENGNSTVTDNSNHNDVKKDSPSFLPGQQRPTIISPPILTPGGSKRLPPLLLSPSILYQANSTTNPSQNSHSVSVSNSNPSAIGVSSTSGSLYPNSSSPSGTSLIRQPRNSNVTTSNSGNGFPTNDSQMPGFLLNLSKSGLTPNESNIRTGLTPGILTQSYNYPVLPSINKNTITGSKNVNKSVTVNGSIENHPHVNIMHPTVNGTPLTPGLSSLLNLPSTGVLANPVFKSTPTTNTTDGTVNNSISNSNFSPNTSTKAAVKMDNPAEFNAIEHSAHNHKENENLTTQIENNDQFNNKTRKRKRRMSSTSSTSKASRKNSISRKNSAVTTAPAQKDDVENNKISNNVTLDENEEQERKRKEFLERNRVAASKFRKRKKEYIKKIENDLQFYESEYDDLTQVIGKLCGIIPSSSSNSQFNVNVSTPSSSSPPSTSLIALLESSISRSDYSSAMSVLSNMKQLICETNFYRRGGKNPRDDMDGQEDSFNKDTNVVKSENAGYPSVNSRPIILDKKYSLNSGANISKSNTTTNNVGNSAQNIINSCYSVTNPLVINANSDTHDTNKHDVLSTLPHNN
Test details: PBM E-score (8-mer binding enrichment) (E-score (-0.5 to 0.5)); higher = stronger / more preferred TF binding
Assay conditions: protein concentration: 200 nM; construct: GST-full length
Whole data set: some 33,000 sequences, median “E-score (-0.5 to 0.5)” near -0.032, cut for the highest 2% near 0.36. Shown is part of a subset that was picked to be rich in the highest values.
For each entry below, report its PBM E-score value.
Answers are plain numbers.

Example entries begin here.
# Record sequence, PBM E-score
measured = [
    ("CTGGCGCC", -0.181),
    ("CCACGTAC", 0.374),
    ("CCACGTGC", 0.341),
    ("CCACGTGG", 0.177),
    ("CCGAGATC", -0.237),
]

Please give PBM E-score, item by item, for the list that follows.
1. CCTGCGGC
2. CCACGTGA
3. TCACAACA
4. AAAACCGG
5. CCACGTAA
6. CCACGTAG

[-0.427, 0.339, 0.251, -0.128, 0.456, 0.377]

* * *

Target of assay: Sko1 (UniProt Q02100)
Sequence: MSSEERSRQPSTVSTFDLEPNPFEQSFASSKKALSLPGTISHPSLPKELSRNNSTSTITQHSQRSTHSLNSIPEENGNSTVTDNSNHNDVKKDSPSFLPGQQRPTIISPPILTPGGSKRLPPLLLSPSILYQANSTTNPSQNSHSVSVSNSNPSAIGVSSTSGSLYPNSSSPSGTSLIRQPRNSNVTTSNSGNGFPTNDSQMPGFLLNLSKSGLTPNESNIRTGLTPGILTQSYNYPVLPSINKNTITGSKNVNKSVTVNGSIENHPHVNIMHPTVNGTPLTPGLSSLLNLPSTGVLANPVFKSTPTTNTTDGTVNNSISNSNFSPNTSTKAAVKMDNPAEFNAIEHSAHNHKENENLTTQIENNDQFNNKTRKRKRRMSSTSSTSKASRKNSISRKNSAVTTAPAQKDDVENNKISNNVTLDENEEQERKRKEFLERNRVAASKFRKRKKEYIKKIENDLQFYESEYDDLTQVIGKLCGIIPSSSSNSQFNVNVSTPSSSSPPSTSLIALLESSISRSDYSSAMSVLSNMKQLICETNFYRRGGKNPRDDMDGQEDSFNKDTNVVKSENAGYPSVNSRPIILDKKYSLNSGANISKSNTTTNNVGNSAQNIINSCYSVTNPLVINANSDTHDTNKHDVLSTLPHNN
Test details: PBM E-score (8-mer binding enrichment) (E-score (-0.5 to 0.5)); higher = stronger / more preferred TF binding
Assay conditions: protein concentration: 200 nM; construct: GST-full length
In all, about 33,000 sequences were measured (“E-score (-0.5 to 0.5)”: median about -0.032, highest 2% from about 0.36 on). The sample holds the highest values, similar sequences and a random draw of the others, so the mix is not that of the screen.
Value type: PBM E-score

Example entries begin here.
# Record sequence, Reported result
data = [
    ("CCCGTAAC", -0.105),
    ("CCCGTAAA", -0.102),
    ("GATAGTCC", -0.141),
    ("CACGTAGA", 0.39),
    ("ACGCGTAT", 0.389),
]

Please give PBM E-score, item by item, for the list that follows.
1. AATGACGC
2. AGGGCCAG
3. ACCAATGG

1. 0.478
2. -0.407
3. -0.28

Please give PBM E-score, item by item, for the list that follows.
1. CTGACATA
2. ATGGCAGG

0.266
-0.281

Please give PBM E-score, item by item, for the list that follows.
1. ACACCTTG
2. CAACGTAC

1. 0.00022
2. 0.326

Please give PBM E-score, item by item, for the list that follows.
1. ACCTGTGA
2. CATGACAA
3. CCTATAGG
4. CGTTTTGC
5. ACGCGTAC

1: 0.115; 2: -0.00914; 3: -0.205; 4: 0.177; 5: 0.307

Where do these numbers come from? They come from the supplement of paper PMC3334620.
